# procedureDetails: Volume of distribution at steady state in rat at 1 mg/kg, iv or 1 mg/kg, po
# Assay type: ADME, organism-based
# experimentalContext: in vivo, read-out: Vdss
quantityName: Vd (L/kg)
Numbers only, in L/kg.

(Q) Please report the recorded Vd for C[C@]1(c2ccc(OC(F)(F)F)cc2)C[C@](O)(c2ccccn2)CO1 (single isomer, unassigned) .
(A) 3.2

----------
# testedSystem: Nuclear receptor subfamily 1 group I member 2 (Homo sapiens, UniProt O75469)
# Sequence (O75469 whole entry): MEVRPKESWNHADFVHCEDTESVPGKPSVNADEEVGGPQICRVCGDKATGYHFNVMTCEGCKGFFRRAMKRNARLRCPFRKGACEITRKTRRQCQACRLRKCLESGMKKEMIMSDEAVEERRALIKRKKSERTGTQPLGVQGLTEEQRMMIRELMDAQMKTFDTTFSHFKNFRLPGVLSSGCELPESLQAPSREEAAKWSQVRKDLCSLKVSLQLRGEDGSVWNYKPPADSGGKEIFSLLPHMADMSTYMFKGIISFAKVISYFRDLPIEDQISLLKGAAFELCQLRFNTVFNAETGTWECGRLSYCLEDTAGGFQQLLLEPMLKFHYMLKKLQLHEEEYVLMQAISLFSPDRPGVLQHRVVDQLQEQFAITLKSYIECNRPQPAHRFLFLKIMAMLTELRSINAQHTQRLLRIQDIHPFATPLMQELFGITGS
# procedureDetails: Activation of human PXR
quantityName: EC50 (µM)
One number for each entry, in µM.

(Q) Report EC50 for O[C@H](c1ccccn1)C1(c2ccc(OC(F)(F)F)cc2)CC(F)(F)C1 tested on Nuclear receptor subfamily 1 group I member 2 (Homo sapiens, UniProt O75469).
(A) 5.7

----------
# procedureDetails: AUC(0 to 8 hrs) in rat at 2 mg/kg, po
# Type: ADME, organism-based
# Design: time < 6 hr, dose 2 mg/kg, route oral
# experimentalContext: in vivo
quantityName: AUC(0-t) at 6 h (ng·h/mL)
Give bare numbers, in ng·h/mL.

(Q) Please report the recorded AUC(0-t) at 6 h for C[C@]1(O)C[C@](c2cc(C(F)(F)F)ccn2)([C@H](O)c2ccccn2)C1 (mixture of isomers) .
(A) 380

----------
# procedureDetails: Volume of distribution at steady state in rat at 1 mg/kg, iv or 2 mg/kg, po
# Type: ADME, organism-based
# experimentalContext: in vivo, read-out: Vdss
quantityName: Vd (L/kg)
Give bare numbers, in L/kg.

(Q) Please report the recorded Vd for C[C@]1(O)C[C@](c2cc(C(F)(F)F)ccn2)([C@H](O)c2ccccn2)C1 (mixture of isomers) .
(A) 1.4

----------
# System: Liver microsome
# procedureDetails: Unbound intrinsic clearance in human liver microsomes after 5 hrs by LC-MS/MS analysis
# Format: ADME
What CL free was measured for each of the following?
Answers are plain numbers, in L/h/kg.

C[C@]1(O)C[C@@](c2ccnc(C(F)(F)F)c2)([C@H](O)c2ccccn2)C1 ... 4
C[C@]1(O)C[C@@](c2ccc(OC(F)(F)F)cc2)([C@@H](O)c2ccccn2)C1 ... 3
O[C@H](c1ccccn1)[C@]1(c2ccnc(C(F)(F)F)c2)C[C@H](O)C1 ... 2
O[C@H](c1ccccn1)[C@@]1(c2ccc(Cl)c(Cl)c2)CCCO1 ... 23
O[C@@]1(c2ccccn2)CC[C@H](c2ccc(C(F)(F)F)cc2)C1 ... 24
OC(c1cc(F)ccn1)C1(c2ccc(Cl)c(Cl)c2)CCC1 (racemic) ... 32

Working through the 3 molecules below one at a time, give CL free for each.
1. C[C@]1(O)C[C@](c2cc(C(F)(F)F)ccn2)([C@@H](O)c2ccccn2)C1
2. O[C@]1(c2ccccn2)CC[C@H](c2ccc(C(F)(F)F)cc2)C1
3. O[C@H](c1ccccn1)C1(c2cccc(OC(F)(F)F)c2)CCC1

(A)
1. 2
2. 20
3. 133

Working through the 6 molecules below one at a time, give CL free for each.
1. C[C@@]1(c2ccc(OC(F)(F)F)cc2)C[C@](O)(c2ccccn2)CO1
2. C[C@]1(c2ccc(OC(F)(F)F)cc2)C[C@](O)(c2ccccn2)CO1 (single isomer, unassigned)
3. C[C@]1(O)C[C@](c2ccnc(C(F)(F)F)c2)([C@H](O)c2ccccn2)C1
4. C[C@]1(O)C[C@](c2ccc(C(F)(F)F)cc2)([C@H](O)c2ccccn2)C1
5. OC(c1ccc(F)cn1)C1(c2ccc(Cl)c(Cl)c2)CCC1 (racemic)
6. O[C@H](c1ccccn1)[C@]1(c2cccc(C(F)(F)F)c2)C[C@@H](O)C1

(A)
1. 13
2. 7
3. 4
4. 2
5. 46
6. 3

Working through the 4 molecules below one at a time, give CL free for each.
1. OC(c1ncccc1F)C1(c2ccc(Cl)c(Cl)c2)CCC1 (racemic)
2. O[C@H](c1ccccn1)[C@]1(c2cccc(OC(F)(F)F)c2)C[C@H](O)C1
3. CC(O)(c1ccccn1)C1(c2ccc(Cl)c(Cl)c2)CCC1 (racemic)
4. C[C@]1(O)C[C@@](c2ccc(OC(F)(F)F)cc2)([C@H](O)c2ccccn2)C1

(A)
1: 50; 2: 9; 3: 100; 4: 4

Working through the 2 molecules below one at a time, give CL free for each.
1. O[C@H](c1ccccn1)C1(c2ccc(Cl)c(Cl)c2)CCC1
2. C[C@]1(O)C[C@](c2cc(C(F)(F)F)ccn2)([C@H](O)c2ccccn2)C1 (mixture of isomers)

(A)
41
2

Working through the 2 molecules below one at a time, give CL free for each.
1. O[C@H](c1ccccn1)[C@]1(c2ccc(Cl)c(Cl)c2)CCO1
2. O[C@H](c1ccccn1)[C@@]1(c2ccc(Cl)c(Cl)c2)CCO1

(A)
4
13

----------
# Tested on: Liver microsome
# procedureDetails: Unbound intrinsic clearance in human liver microsomes after 5 hrs by LC-MS/MS analysis
# Assay type: ADME
quantityName: CL free (L/h/kg)
Answers are plain numbers, in L/h/kg.

OC(c1ccccn1)C1(c2ccccc2OC(F)(F)F)CCC1 (racemic) ... 74
C[C@]1(O)C[C@](c2ccc(OC(F)(F)F)cc2)([C@H](O)c2ccccn2)C1 ... 3
C[C@]1(c2ccc(OC(F)(F)F)cc2)C[C@@](O)(c2ccccn2)CO1 ... 7

Turning to the following compound.
(Q) Please report the recorded CL free for O[C@H](c1ccccn1)C1(c2ccc(OC(F)(F)F)cc2)CCC1 .
(A) 20

----------
What CL free was measured for each of the following?
# System: Liver microsome
# procedureDetails: Unbound intrinsic clearance in rat liver microsomes after 5 hrs by LC-MS/MS analysis
# Assay type: ADME
Numbers only, in mL/min/kg.

Known results for compounds:
C[C@]1(O)C[C@](c2cccc(C(F)(F)F)c2)([C@H](O)c2ccccn2)C1 ... 67
OC(c1ccccn1)C1(c2ccc(Cl)c(Cl)c2)CCOC1 (configuration not stated) ... 983
O[C@H](c1ccccn1)[C@]1(c2ccc(Cl)c(Cl)c2)CCO1 ... 50

Working through the 4 compounds below one at a time, give CL free for each.
1. O[C@H](c1ccccn1)[C@@]1(c2ccc(Cl)c(Cl)c2)CCCO1
2. O[C@H](c1ccccn1)[C@]1(c2cc(C(F)(F)F)ccn2)C[C@H](O)C1
3. OC(c1cc(F)ccn1)C1(c2ccc(Cl)c(Cl)c2)CCC1 (racemic)
4. OC(c1ccccn1)C1(c2ccccc2OC(F)(F)F)CCC1 (racemic)

(A)
1: 2980; 2: 50; 3: 3850; 4: 1830

----------
# testedSystem: Transient receptor potential cation channel subfamily V member 3 (Homo sapiens) (UniProt Q8NET8)
# Sequence (whole entry): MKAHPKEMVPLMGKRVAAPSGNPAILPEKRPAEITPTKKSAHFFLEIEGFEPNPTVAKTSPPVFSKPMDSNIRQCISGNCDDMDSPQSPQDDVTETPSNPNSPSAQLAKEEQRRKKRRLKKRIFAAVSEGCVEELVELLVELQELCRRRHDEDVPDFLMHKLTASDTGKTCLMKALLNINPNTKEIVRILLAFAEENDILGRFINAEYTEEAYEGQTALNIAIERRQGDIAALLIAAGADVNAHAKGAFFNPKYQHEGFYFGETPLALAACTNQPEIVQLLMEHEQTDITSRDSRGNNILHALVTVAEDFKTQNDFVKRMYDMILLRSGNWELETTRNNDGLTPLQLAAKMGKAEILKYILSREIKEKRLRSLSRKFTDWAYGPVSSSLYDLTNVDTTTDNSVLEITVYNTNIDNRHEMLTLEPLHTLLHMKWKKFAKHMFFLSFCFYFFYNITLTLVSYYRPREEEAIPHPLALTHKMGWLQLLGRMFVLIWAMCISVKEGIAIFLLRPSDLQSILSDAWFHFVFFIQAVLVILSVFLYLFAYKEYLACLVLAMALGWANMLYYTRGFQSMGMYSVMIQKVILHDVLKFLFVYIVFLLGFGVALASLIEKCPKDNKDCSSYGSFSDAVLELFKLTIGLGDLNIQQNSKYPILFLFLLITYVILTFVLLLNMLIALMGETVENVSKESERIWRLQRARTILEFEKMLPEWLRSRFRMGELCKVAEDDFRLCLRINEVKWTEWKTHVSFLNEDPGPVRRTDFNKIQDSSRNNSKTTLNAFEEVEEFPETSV
# procedureDetails: Antagonist activity at human TRPV3 expressed in recombinant HEK293 cells assessed as inhibition of 2-APB induced calcium flux by FLIPR analysis
# Assay type: cell-based
Definition: the class of an entry is the range in bottom range (below 400 nM), center range (400 nM to below 2000 nM), top range (2000 nM or more) that contains its Kb.

Some solved entries appear below for comparison.
C[C@]1(O)C[C@@](c2ccc(OC(F)(F)F)cc2)([C@@H](O)c2ccccn2)C1 ... top range
C[C@]1(O)C[C@@](c2ccc(C(F)(F)F)cc2)([C@H](O)c2ccccn2)C1 ... center range
O[C@H](c1ccccn1)[C@]1(c2cccc(C(F)(F)F)c2)C[C@H](O)C1 ... bottom range
O[C@H](c1ccccn1)[C@]1(c2ccc(C(F)(F)F)cc2)C[C@H](O)C1 ... top range
O[C@H](c1ccccn1)C1(c2ccc(Cl)c(Cl)c2)CCC1 ... bottom range
C[C@@]1(c2ccc(OC(F)(F)F)cc2)C[C@@](O)(c2ccccn2)CO1 (single isomer, unassigned) ... center range
C[C@]1(O)C[C@@](c2cc(C(F)(F)F)ccn2)([C@H](O)c2ccccn2)C1 ... center range
C[C@@]1(c2ccc(OC(F)(F)F)cc2)C[C@](O)(c2ccccn2)CO1 ... center range

(Q) Consider OC(c1ccccn1)C1(c2ccc(Cl)c(Cl)c2)COC1 (stereo unspecified) . To which Kb class does it belong?
(A) top range

(Q) Consider O[C@H](c1ccccn1)[C@]1(c2cccc(OC(F)(F)F)c2)C[C@@H](O)C1 . To which Kb class does it belong?
(A) bottom range

(Q) Consider C[C@]1(O)C[C@](c2ccnc(C(F)(F)F)c2)([C@H](O)c2ccccn2)C1 . To which Kb class does it belong?
(A) center range
